Test system: Human immunodeficiency virus 1
Assay Explanation: Effective concentration against HIV IIIB replication in H9 lymphocytes
pEC50: −log10 of the molar value.
Where pEC50 equals or exceeds 8, the correct label is satisfied; where it does not, the label is not satisfied.

Consider the following illustrative entries.
Item CC1(C)Oc2ccc3ccc(=O)oc3c2[C@@H](OC(=O)C23CCC(C)(C(=O)O2)C3(C)C)[C@H]1OC(=O)C12CCC(C)(C(=O)O1)C2(C)C (some centres undefined) with pEC50 of 8 or above?
not satisfied

Item CCc1cc(=O)c2cc(C(C)(C)C)c3c(c2o1)[C@@H](OC(=O)C12CCC(C)(C(=O)O1)C2(C)C)[C@@H](OC(=O)C12CCC(C)(C(=O)O1)C2(C)C)C(C)(C)O3 (some centres undefined) with pEC50 of 8 or above?
not satisfied

Item Cc1cc(=O)c2ccc3c(c2o1)[C@@H](OC(=O)C12CCC(C)(C(=O)O1)C2(C)C)[C@@H](OC(=O)CC(C)C)C(C)(C)O3 (some centres undefined) with pEC50 of 8 or above?
satisfied

Item Cc1cn([C@H]2C[C@H](N=[N+]=[N-])[C@@H](CO)O2)c(=O)[nH]c1=O with pEC50 of 8 or above?
not satisfied

Item CCCc1cc(=O)c2ccc3c(c2o1)[C@@H](OC(=O)C12CCC(C)(C(=O)O1)C2(C)C)[C@@H](OC(=O)C12CCC(C)(C(=O)O1)C2(C)C)C(C)(C)O3 (some centres undefined) with pEC50 of 8 or above?
not satisfied

Continuing:
Item Cc1coc2c3c(ccc2c1=O)OC(C)(C)[C@H](OC(=O)C12CCC(C)(C(=O)O1)C2(C)C)[C@@H]3OC(=O)C12CCC(C)(C(=O)O1)C2(C)C (some centres undefined) with pEC50 of 8 or above?
satisfied

Item Cc1cc(=O)c2ccc3c(c2o1)[C@@H](OC(=O)C12CCC(C)(C(=O)O1)C2(C)C)[C@@H](OC(=O)C12CCC(C)(C(=O)O1)C2(C)C)C(C)(C)O3 (some centres undefined) with pEC50 of 8 or above?
satisfied

Item CCc1cc(=O)c2ccc3c(c2o1)[C@@H](OC(=O)C12CCC(C)(C(=O)O1)C2(C)C)[C@@H](OC(=O)C12CCC(C)(C(=O)O1)C2(C)C)C(C)(C)O3 (some centres undefined) with pEC50 of 8 or above?
satisfied

Just for reference, ChEMBL document CHEMBL1137203 is where these values come from.
